I'd appreciate it if you could supply apparent KD of MS2 coat protein values for the items below.
- Test system: MS2 coat protein
- assaySummary: apparent KD of MS2 coat protein; higher = weaker reporter binding
- testContext: Eterna round: R107; input ligand: theophylline 20 uM
Give bare numbers, in µM.

Field: example entries. Status: answers known.
biopolymerSequence	assayedSystem	number
AGACAUGAGGAUCACCCAUGUAGCAUGGAUACCAGAUCCAGAUUUAUCCCUUGGCAGCUGUGGUACAGUGAUGGAUUGCUCCUAG [Exclusion - Theophylline A (Freestyle 8)]	MS2 coat protein	0.0936
ACCUGUACGAAAAGUGCAGGACACGGAAUACGAGGACCGGUACGGCCGCCACUCGGAAUAAACCUGAGGAUCACCCUGGUCCGUG [TrypAS 9 #AlternativeMS2 #Zipper #StaticStem]	MS2 coat protein	0.0391

# batch size: 3; output apparent KD of MS2 coat protein per entry
1. UCGUAGGUAGGAAGGAGCGCAUACUUCACAUGAGGAUCACCCAUGUCGAGACGUGAGUCAGUGCAGGUAGGUCGCCUAGCUAUGA [Same State - Arginine B (Freestyle 25)]
2. UUGCCCAGUACGGCCGCCACUGUGUGCAGGGAACCCAGGUCCACAUGAGGAUCACCCAUGUACAGCAGGACCGGGUACUUGCAAU [Ininladia]
3. AAAAUCCUACUUGAGGAUCACCCAGGUGAAGGAGCGCCCGAAAGGGCAGGUAGGUCGCACCUGAGGAUCACCCUGGUAAACCUAA [ArgEX 8 #DoubleMS2 #OpenEnded]

[out]
1. 0.0357
2. 0.0119
3. 0.135

---

- Test system: MS2 coat protein
- assaySummary: apparent KD of MS2 coat protein; designed switch direction (-1 OFF switch, 1 ON switch): 1; higher = weaker reporter binding
- testContext: Eterna round: R95; input ligand: FMN 200 uM
Field: apparent KD of MS2 coat protein. Provide a value for each of the sequences that follow.
The reply should read as a number followed by its unit.

Consider the following items and state reported apparent KD of MS2 coat protein for each.
1. GACAAUCUAUCUGAGGAUAUCAUGAAUAAAACAUGAGGAUCACCCAUGUGCAGGAGAACUGCAAAUGAGAAGGCAGAUAGAUUGG [Mat - Same State 2 - Mod - D10] (puzzle: Same State 2)
2. UCUUGGUUUUUGCUCGUUUUUUGUGUUGAACAUGAGGAUCACCCAUGUAUUGUACGGUCCGGUUUGAUAGUGGUCCG [JMF 15] (puzzle: Sensor for hsa-mir-208a)
3. ACAAGCUUUUUUGUAGUGAAAGGUGGGAUACAUGAGGAUCACCCAUGUAUUGUUGUUAAUAUUGGACCUCGUCUUAU [JR_SHM208A_Sub084] (puzzle: Sensor for hsa-mir-208a)

[out]
10 nM
26.3 nM
22.1 nM

---

- Tested on: MS2 coat protein
- assaySummary: apparent KD of MS2 coat protein; designed switch direction (-1 OFF switch, 1 ON switch): -1; higher = weaker reporter binding
- testContext: Eterna round: R95; input ligand: microRNA oligo, concentration not stated
Quick rule for you: apparent KD of MS2 coat protein at 20 nM or higher means TRUE, lower means FALSE.

Reference set, count: 2
biopolymerSequence	qualitativeLabel
GAUUGAGAGCAGGAUAUCUUAGAAAUGUAUGAAAGAGAAGGGCUCACAUGAGGAUCACCCAUGUGGUCCUAGAU [JL Dibiri mod 17] (puzzle: Exclusion 6)	TRUE
CUUCCCAAAGGAUAUCACGGUAAUAACAUGAGGAUCACCCAUGUGCAAUUCGUGUCCCUGUGAGAAGGUUGAGAAG [Anlabe] (puzzle: Exclusion 5)	FALSE

[in] Assess whether reported apparent KD of MS2 coat protein for UUUUAACAUGAGGAUCACCCAUGUGAGGAUAUCGAAAUUUAUAUUAAUAUUAUUAUAUCGAGAAGGCACAUUUU [JMF 40] (puzzle: Exclusion 1) sits at 20 nM or higher.
[out] TRUE

[in] Now give it for UCCUCACAUGAGGAUCACCCAUGUCAGGAUAUACAAGAAAAUAACCGGAAAGAACGGAGUAGAAGGGACAUAAG [Xeontiorer] (puzzle: Exclusion 1) too.
[out] FALSE

[in] // query: ACAAGUUUUUUGUUUUUUAACAUGAGGAUCACCCAUGUAUUUUUAGAGGAUGUGGGAAUAAGAGCUCUUUGUCUUAU [JR_SV3TOV1_Sub097] (puzzle: Sensor v3, turn-off variant 1)
[out] TRUE

[in] Also, UACCGGCGGACCGAGGCUUUUUGCUCGUCUUAUACUACAACAUGAGGAUCACCCAUGUGGUGGUGGUCCGUUGUAGU [JL ViennaUCT Bitein mod 5] (puzzle: Sensor v3, turn-off variant 2) please.
[out] FALSE

---

- System: MS2 coat protein
- assaySummary: apparent KD of MS2 coat protein; designed switch direction (-1 OFF switch, 1 ON switch): 1; higher = weaker reporter binding
- testContext: input ligand: none
metric: apparent KD of MS2 coat protein (nM)
Answers are plain numbers, in nM.

biopolymerSequence	number
UUGAAGAAUUAAGGAUAUUGAGUACAUAUGUAAAACAUGAGGAUCACCCAUGUGGGUUGCGGUAUCGAGAAGGUAAAUUAAUAG [Mat - same State NG 2 - JL mod - D70] (Eterna round: R96, puzzle: Same State NG 2)	96.3
ACCCACGACGGAGGAUAUGGGCACUCGGCGGAAUAAACCGCCAUAACAUGAGGAUCACCCAUGUCCCAGAAGGCCGUCGCAAUC [Esdirece] (Eterna round: R96, puzzle: Same State NG 2)	712
GCCGCGUUUCGCGCCUACAUGAGGAUCACCCAUGUUUGUAGGCAGGAUAUCGUCCGCUCUGCGGGCGAGAAGGGCUGUUGUGGU [salish99_SSNG3_R04_024] (Eterna round: R96, puzzle: Same State NG 3)	86.7

The record that follows has no apparent KD of MS2 coat protein shown yet.
[in] Query: apparent KD of MS2 coat protein; subject: UGGCUCAGAGCAGGAUAUAUGUGAUCACAUGAGGAUCACCCAUGUCUCGAGCUUCGGCUCGAGACAUAGAAGGGCUCUGAGCCA [SSNG2/3-B2] (Eterna round: R96, puzzle: Same State NG 2)
[out] 22.5

---

- System: MS2 coat protein
- assaySummary: apparent KD of MS2 coat protein; higher = weaker reporter binding
- testContext: Eterna round: R101; input ligand: none
Exercise: for every item that follows, state its recorded apparent KD of MS2 coat protein.
One number for each entry, in nM.

biopolymerSequence	unitsOfMeasure	apparent KD of MS2 coat protein
AGGAGGAAUGUAGGAUAUAUAUAUAUAUAUAGACAAAGUGUAUAUAUAUAUAUAGAAGGACAUGAGGAUCACCCAUGUUUCCCU [#Lowering the energy 13] (puzzle (switch architecture): Small Loop Exclusion NG 1)	nM	8.11
AGAAACUACGAGAAGGACAUGUGGUCCUUCGGGAAAAUGAGGAUCACCCAUGUAGGAUAUCGUAGUUUCAGGAUCGUGAGAUCA [salish99_ISLExNG1_022 #HINGE] (puzzle (switch architecture): Inverted Small Loop Exclusion NG 1)	nM	69.2

Attention now turns to another entry.
[in] Would you mind telling me what apparent KD of MS2 coat protein value was observed for UAUUCUUUGUUAGGAUAUGGGCCCACCCACCCACAAAGUGGGUGGGUGGGCCCAGAAGGAACAUGAGGAUCACCCAUGUAGGAA [#Aaaddddeeeeeeennnniiiinneeeee!] (puzzle (switch architecture): Small Loop Exclusion NG 1) ?
[out] 11.7

---

- System: MS2 coat protein
- assaySummary: apparent KD of MS2 coat protein; designed switch direction (-1 OFF switch, 1 ON switch): -1; higher = weaker reporter binding
- testContext: input ligand: FMN 200 uM
metric: apparent KD of MS2 coat protein (µM)
One number for each entry, in µM.

I would be grateful if you could provide apparent KD of MS2 coat protein for each of the following entries.
1. CUGUUUUUCGCAGGAUAUGCUCCUCCUUUAUUUGCAGAAGGGCGUUAAACAUGAGGAUCACCCAUGUAUGGUAAUGACAUUUUC [JR_ExcNG1_Sub063] (Eterna round: R96, puzzle: Exclusion NG 1)
2. ACGGGUAAGUAAGGAUAUCCAACAGGCUGAAUUCAACCUGAACAUGAGGAUCACCCAUGUGGGUGGGAGAAGGUACUCUCCCGC [Diladiaen] (Eterna round: R96, puzzle: Exclusion NG 2)
3. GUUCGACAUGAGGAUCACCCAUGUGAGGAUAUACGAUUAGCUGCUAGGUAGUUAGUAUGUAGAAGGUGCAUGAA [EX1 #73] (Eterna round: R97, puzzle: Exclusion 1)

[out]
[0.135, 0.0865, 0.0552]

---

- System: MS2 coat protein
- assaySummary: apparent KD of MS2 coat protein; higher = weaker reporter binding
- testContext: Eterna round: R107; input ligand: arginine 13.2 mM
Think of 30 nM as a floor: if apparent KD of MS2 coat protein stands on it or above, it is satisfied; beneath it, not satisfied.

biopolymerSequence	qualitativeLabel
AGACACAUGAGGAUCACCCAUGUACACGAGCGAGGACCGGUACGGCCGCCACUCGUCCAAGCAACUAAUGAGACUCGUAAGAUGG [theeternabot_sameState_MS2_Trp_A_5]	not satisfied
UCAUGACAUGGGAAUAAAUAAGAAGGCGAAGGAGCGUGAAGAUUCACAGGUAGGUCGCGCAAAAUACAUGAGGAUCACCCAUGUU [JR_Nu_ExcArginiA_Sub032]	satisfied
AGCCAUGGAAACAUGGCGGCGGCUUGGGCGCGAGGACCGGUACGGCCGCCACUCGGGCAACAUGAGGAUCACCCAUGUUCCUCAU [ETA NP+V+V2 #18]	satisfied
CCAUGCAGGUCGGCCGCCACUACACACAUGAGGAUCACCCAUGUAGUUACUGGGUGAAGUGGCAGUAGGACCGGGACCUGCAUAC [Brourdmod12]	satisfied
UAUCCACAUGAGGAUCACCCAUGUGAGGAAGGAGCGGUGAAUGCACCAGGUAGGUCGCCUUGCUGAGGACAGCCGGUGGAUUCGU [Exclusion - Arginine A (Freestyle 25)]	not satisfied

Consider the record given below.
[in] Quick check: does UGAUACACGGGAAGGAGCGACAGGGAUAAGUCCGCACGGGCCGCACAUGAGGAUCACCCAUGUCAGGUAGGUCGCCCGUGGCGUG [Erxemarima] have apparent KD of MS2 coat protein greater than or equal to 30 nM?
[out] not satisfied
